Source of measurements: the supplement of paper PMC10266784

B1: library; numbered along this chain (parent)
chain: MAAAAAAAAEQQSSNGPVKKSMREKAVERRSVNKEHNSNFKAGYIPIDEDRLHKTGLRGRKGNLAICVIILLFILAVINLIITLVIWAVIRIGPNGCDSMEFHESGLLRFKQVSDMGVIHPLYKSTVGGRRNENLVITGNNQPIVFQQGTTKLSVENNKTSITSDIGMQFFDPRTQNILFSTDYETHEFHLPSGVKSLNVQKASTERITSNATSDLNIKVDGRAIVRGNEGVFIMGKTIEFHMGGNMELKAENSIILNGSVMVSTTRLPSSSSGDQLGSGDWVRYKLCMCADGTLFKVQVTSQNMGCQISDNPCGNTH

- Variants of: B1
- method.notes: SGCB cell-surface expression functional score (HA stain, bin4 vs bin1, normalised to synonymous) (log10 ratio); higher = more cell-surface SGCB (functional)
assay.endpoint: SGCB cell-surface expression functional score (log10)
Give bare numbers.

V232L	0.35
F102C	-1.3
I234Q	-1.65
V298C	0.01
I256N	1.09
N258G	0.43
A203S	-1.01
S260G	0.77

Please give SGCB cell-surface expression functional score (log10) for each item listed below.
1. S21R
2. F102E
3. G236D
4. N316K

Result block:
1: 0.08; 2: -1.93; 3: -0.43; 4: 0.03
